molecular target: Vascular endothelial growth factor receptor 2 (Homo sapiens); experiment: Inhibition of recombinant human N-terminal GST-fused KDR (D807 to V1356 residues) expressed in baculovirus infected […] insect Sf9 cells using poly-EY as substrate after 240 mins by luciferase coupled chemiluminescence assay
Sequence (P35968 whole entry, the tested form may be a part): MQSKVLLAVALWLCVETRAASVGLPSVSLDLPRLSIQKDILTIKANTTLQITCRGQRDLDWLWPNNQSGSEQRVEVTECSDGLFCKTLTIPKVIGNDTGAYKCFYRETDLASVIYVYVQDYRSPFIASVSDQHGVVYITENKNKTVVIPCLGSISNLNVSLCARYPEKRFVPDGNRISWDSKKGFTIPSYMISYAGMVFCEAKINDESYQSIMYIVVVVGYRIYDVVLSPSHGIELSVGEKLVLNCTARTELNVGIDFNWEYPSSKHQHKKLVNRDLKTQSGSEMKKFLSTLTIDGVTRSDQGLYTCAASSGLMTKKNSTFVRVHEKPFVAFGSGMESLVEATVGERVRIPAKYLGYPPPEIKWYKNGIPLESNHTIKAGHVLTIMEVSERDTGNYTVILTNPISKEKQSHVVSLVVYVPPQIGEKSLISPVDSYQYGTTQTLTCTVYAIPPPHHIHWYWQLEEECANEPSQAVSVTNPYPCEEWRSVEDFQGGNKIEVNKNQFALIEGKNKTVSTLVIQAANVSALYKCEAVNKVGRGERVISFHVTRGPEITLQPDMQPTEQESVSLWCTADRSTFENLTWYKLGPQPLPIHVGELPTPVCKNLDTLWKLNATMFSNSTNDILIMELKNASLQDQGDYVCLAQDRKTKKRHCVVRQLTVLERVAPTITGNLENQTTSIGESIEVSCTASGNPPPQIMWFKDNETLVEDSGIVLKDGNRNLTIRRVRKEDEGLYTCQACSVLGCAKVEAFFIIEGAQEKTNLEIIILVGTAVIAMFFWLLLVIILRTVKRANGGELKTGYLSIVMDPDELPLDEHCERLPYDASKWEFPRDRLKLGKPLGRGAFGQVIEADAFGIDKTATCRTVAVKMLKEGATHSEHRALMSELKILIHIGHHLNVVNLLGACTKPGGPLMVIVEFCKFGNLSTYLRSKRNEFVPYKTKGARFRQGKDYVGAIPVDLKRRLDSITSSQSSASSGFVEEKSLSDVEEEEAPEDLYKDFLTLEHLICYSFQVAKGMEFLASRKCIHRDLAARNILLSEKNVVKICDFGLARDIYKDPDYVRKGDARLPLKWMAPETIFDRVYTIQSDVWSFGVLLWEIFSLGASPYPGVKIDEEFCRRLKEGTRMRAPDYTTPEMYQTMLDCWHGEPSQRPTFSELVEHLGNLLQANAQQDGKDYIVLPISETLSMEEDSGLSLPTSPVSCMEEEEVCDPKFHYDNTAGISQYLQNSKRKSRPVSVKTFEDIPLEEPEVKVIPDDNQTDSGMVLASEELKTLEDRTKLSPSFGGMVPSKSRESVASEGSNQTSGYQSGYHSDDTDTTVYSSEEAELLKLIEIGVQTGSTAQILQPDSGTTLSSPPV
pIC50: −log10 of the molar value.
measured endpoint: pIC50

# count of solved cases: 5
# compound, experimental value
measured = [
    ("COc1cc2c(Nc3cccc(Cl)c3F)ncnc2cc1OCC1CN(/C(N)=N/C#N)CCCO1 (stereo unspecified)", "6.00 to 7.30"),
    ("COc1cc2c(Nc3ccc(Cl)c(Cl)c3)ncnc2cc1OC[C@@H]1CN2CCC[C@@H]2CO1", "> 7.30"),
    ("COc1cc2c(Nc3ccc(Cl)c(Cl)c3)ncnc2cc1OCc1csc(C2CCCN(C)C2)n1 (stereo unspecified)", "6.00 to 7.30"),
    ("COc1cc2c(Nc3ccc(Cl)c(Cl)c3F)ncnc2cc1OC[C@@H]1C[C@@H]2CN(C)C[C@@H]2C1 [TESEVATINIB]", "> 7.30"),
    ("COc1cc2c(Nc3ccc(Cl)c(Cl)c3)ncnc2cc1OCC1CN(CCC2CCCCC2)CCCO1 (stereo unspecified)", "6.00 to 7.30"),
]

get_value(item= COc1cc2c(Nc3ccc(Cl)c(Cl)c3)ncnc2cc1OCC1CN(C(=O)C(C)(C)C)CCO1 (stereo unspecified) , readout=pIC50) returns 6.00 to 7.30

get_value(item= COc1cc2c(Nc3ccc(Cl)c(Cl)c3)ncnc2cc1OCC1CN(C2CCOCC2)CCO1 (stereo unspecified) , readout=pIC50) returns 6.00 to 7.30

get_value(item= CCN(CC)[C@H]1CO[C@H]2[C@@H]1OC[C@@H]2Oc1cc2ncnc(Nc3ccc(Br)c(Cl)c3)c2cc1OC , readout=pIC50) returns 6.00 to 7.30

get_value(item= COc1cc2c(Nc3ccc(Br)c(Cl)c3)ncnc2cc1O[C@H]1CO[C@H]2[C@@H]1OC[C@@H]2N1CCCCC1 , readout=pIC50) returns 4.70 to 6.00

----------
Biological target: Ephrin type-B receptor 4 (Homo sapiens)
Sequence (P54760 whole entry): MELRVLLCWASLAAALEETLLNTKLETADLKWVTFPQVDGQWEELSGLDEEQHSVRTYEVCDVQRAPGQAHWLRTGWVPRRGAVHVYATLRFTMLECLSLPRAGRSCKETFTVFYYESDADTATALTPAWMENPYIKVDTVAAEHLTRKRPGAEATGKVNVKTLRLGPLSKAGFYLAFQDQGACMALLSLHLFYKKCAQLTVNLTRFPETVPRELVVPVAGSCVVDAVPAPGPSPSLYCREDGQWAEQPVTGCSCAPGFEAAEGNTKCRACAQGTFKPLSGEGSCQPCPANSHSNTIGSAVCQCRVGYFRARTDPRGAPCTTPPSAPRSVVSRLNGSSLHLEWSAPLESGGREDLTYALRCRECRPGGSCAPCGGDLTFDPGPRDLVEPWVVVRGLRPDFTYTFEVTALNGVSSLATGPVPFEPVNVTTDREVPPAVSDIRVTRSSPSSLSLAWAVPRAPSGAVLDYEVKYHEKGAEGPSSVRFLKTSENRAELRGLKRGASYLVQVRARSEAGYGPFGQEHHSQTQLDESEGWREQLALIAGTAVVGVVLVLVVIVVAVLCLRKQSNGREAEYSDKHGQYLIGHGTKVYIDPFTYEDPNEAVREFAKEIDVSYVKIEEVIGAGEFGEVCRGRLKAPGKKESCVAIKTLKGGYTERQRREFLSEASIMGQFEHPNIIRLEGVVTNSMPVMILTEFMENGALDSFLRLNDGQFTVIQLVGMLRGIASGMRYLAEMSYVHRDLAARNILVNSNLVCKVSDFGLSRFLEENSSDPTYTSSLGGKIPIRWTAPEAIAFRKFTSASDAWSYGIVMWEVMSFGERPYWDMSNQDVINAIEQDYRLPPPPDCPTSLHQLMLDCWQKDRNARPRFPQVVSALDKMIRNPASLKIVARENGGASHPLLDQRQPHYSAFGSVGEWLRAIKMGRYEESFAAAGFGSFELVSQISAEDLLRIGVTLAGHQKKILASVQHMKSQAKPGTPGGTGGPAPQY
Assay: Inhibition of recombinant human N-terminal His6-tagged EphB4 kinase domain (E605 to E890 residues) expressed in baculovirus using poly-AEKY as substrate after 150 mins in presence of gamma33P-ATP by liquid scintillation spectrometry
measured endpoint: IC50

# compound, IC50
records = [
    ("COc1cc2c(Nc3ccc(Cl)c(Cl)c3)ncnc2cc1OCC1CN(CCCCCCO)CCO1 (stereo not given)", "< 50 nM"),
    ("COc1cc2c(Nc3ccc(Cl)c(Cl)c3F)ncnc2cc1OC[C@@H]1C[C@@H]2CN(C)C[C@@H]2C1 [TESEVATINIB]", "< 50 nM"),
    ("COc1cc2c(Nc3ccc(F)c(Cl)c3F)ncnc2cc1OC[C@H]1CN2CCOC[C@H]2CO1", "50 to 1000 nM"),
]

Next item in the queue.
get_value(item= COc1cc2c(Nc3cc(Cl)c(Br)cc3F)ncnc2cc1OCC1CN(C)C(C)(C)CO1 (stereo not given) , readout=IC50) returns < 50 nM

Source of measurements: ChEMBL document CHEMBL3882729
